target: T1, HLA-A*02:01 (human); test: UV-ligand exchange, anti-b2m ELISA; grade of peptide exchange yield (>10% = +; >20% = ++; >50 = +++; >75% = ++++)
T1 construct: Peptide-receptive HLA-A*02:01 monomer obtained by UV cleavage of a UV-sensitive ligand; captured on streptavidin plates; also called peptide-receptive MHC molecules; MHC class I
Measurement name: peptide exchange yield

>  <Binder>
RLVEVGGDVQL

>  <Measurement name>
peptide exchange yield

>  <Experimental value>
> 75%

$$$$
>  <Binder>
VLNVGVAEV

>  <Measurement name>
peptide exchange yield

>  <Experimental value>
50 to 75%

$$$$
>  <Binder>
LLFTGLVSGV

>  <Measurement name>
peptide exchange yield

>  <Experimental value>
50 to 75%

$$$$
>  <Binder>
FVAGYIAGV

>  <Measurement name>
peptide exchange yield

>  <Experimental value>
> 75%

$$$$
>  <Binder>
QLLQYVYNL

>  <Measurement name>
peptide exchange yield

>  <Experimental value>
> 75%

$$$$
>  <Binder>
YLINEIDRIRA

>  <Measurement name>
peptide exchange yield

>  <Experimental value>
> 75%

$$$$
>  <Binder>
TLNDGVVVQV

>  <Measurement name>
peptide exchange yield

>  <Experimental value>
> 75%

$$$$
>  <Binder>
ALSNVVHKV

>  <Measurement name>
peptide exchange yield

>  <Experimental value>
> 75%

$$$$
>  <Binder>
ALMDEINFMKM

>  <Measurement name>
peptide exchange yield

>  <Experimental value>
> 75%

$$$$
>  <Binder>
SLYGLGGSKRISI

>  <Measurement name>
peptide exchange yield

>  <Experimental value>
50 to 75%

$$$$
>  <Binder>
GLYGIKDDVFL

>  <Measurement name>
peptide exchange yield

>  <Experimental value>
> 75%

$$$$
>  <Binder>
KLPEPCPSTV

>  <Measurement name>
peptide exchange yield

>  <Experimental value>
50 to 75%

$$$$
>  <Binder>
YLLDYPNNL

>  <Measurement name>
peptide exchange yield

>  <Experimental value>
50 to 75%

$$$$
>  <Binder>
YLYPDLSRL

>  <Measurement name>
peptide exchange yield

>  <Experimental value>
> 75%

$$$$
>  <Binder>
PVCPPGGIQEV

>  <Measurement name>
peptide exchange yield

>  <Experimental value>
50 to 75%

$$$$
>  <Binder>
FLFPAFLTA

>  <Measurement name>
peptide exchange yield

>  <Experimental value>
> 75%

$$$$

The origin of these recorded values is patent US20200155602A1.
